# studyTarget: T1, TAZ1 domain of HAC1, HAC1-TAZ1(626-724) (Arabidopsis, UniProt Q9C5X9 626-724)
# T1 sequence (looked up): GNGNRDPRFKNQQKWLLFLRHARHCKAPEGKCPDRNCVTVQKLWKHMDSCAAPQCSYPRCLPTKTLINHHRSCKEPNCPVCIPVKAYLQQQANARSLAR
# method: NMR titration
observable: Kd (µM)

ANAC046(172-222, S175W), fragment containing AD1/M1-2 (domain or fragment, Arabidopsis thaliana, UniProt Q9SQQ6 172-222, looked up) NAPWTTITTTKQLSRIDSLDNIDHLLDFSSLPPLIDPGFLGQPGPSFSGAR | 112
